All values here come from the supplement of paper PMC8975748.

- Tested on: Saccharomyces cerevisiae BY4741 SeMeCo community
- protocol-description: z-score of subpopulation abundance vs DMSO median, subpopulation auxotrophic for LUM; higher = larger share of this subpopulation than in DMSO controls
- condition-notes: 10 µM; 24 h; SM minimal medium; subpopulation (auxotrophy): LUM
Where a name gives a salt, the structure may show the parent alone.
Listed next: entries and their corresponding z-score of subpopulation abundance.
Just the number.

Some solved cases for reference:
[
  {
    "molecule": "NC(=O)C(c1ccccc1)(c1ccccc1)[C@@H]1CCN(CCc2ccc3c(c2)CCO3)C1 [Darifenacin HBr]",
    "system-tested": "Saccharomyces cerevisiae BY4741 SeMeCo community",
    "z-score of subpopulation abundance": -0.55
  },
  {
    "molecule": "O=C(Nc1cc(Cl)cc(Cl)c1O)c1c(O)c(Cl)cc(Cl)c1Cl [Oxyclozanide]",
    "system-tested": "Saccharomyces cerevisiae BY4741 SeMeCo community",
    "z-score of subpopulation abundance": -0.27
  }
]

QUERY: Reported z-score of subpopulation abundance for CC(C)(O/N=C(\C(=O)N[C@@H]1C(=O)N2C(C(=O)[O-])=C(C[n+]3ccccc3)CS[C@H]12)c1csc(N)n1)C(=O)O [Ceftazidime] : what is it?
RESULT: 0.05

QUERY: Reported z-score of subpopulation abundance for COc1ccc2cc3[n+](cc2c1OC)CCc1cc2c(cc1-3)OCO2 [Berberine Sulfate] : what is it?
RESULT: -0.27

QUERY: Reported z-score of subpopulation abundance for CCN(CC)CCOC(=O)c1ccc(N)cc1 [Procaine] : what is it?
RESULT: 0.13

----------
- System: Saccharomyces cerevisiae BY4741 SeMeCo community
- protocol-description: z-score of subpopulation abundance vs DMSO median, subpopulation auxotrophic for U; higher = larger share of this subpopulation than in DMSO controls
- condition-notes: 10 µM; 24 h; SM minimal medium; subpopulation (auxotrophy): U
Where a name gives a salt, the structure may show the parent alone.
Okay, here is how we bin by z-score of subpopulation abundance: c1: < -0.2; c2: ≥ -0.2 and < 0.7; c3: ≥ 0.7

QUERY: State the class of the compound shown: "Oc1ccc(Cl)c2cccnc12"
RESULT: c1

QUERY: State the class of the compound shown: C[C@@H](CN1CC(=O)NC(=O)C1)N1CC(=O)NC(=O)C1 [Dexrazoxane HCl (ICRF-187, ADR-529)]
RESULT: c2

QUERY: State the class of the compound shown: C[C@]12CC[C@@H]3c4ccc(OC(=O)c5ccccc5)cc4CC[C@H]3[C@@H]1CC[C@@H]2O [Estradiol Benzoate]
RESULT: c1

----------
- Tested on: Saccharomyces cerevisiae BY4741 SeMeCo community
- protocol-description: z-score of prototroph abundance vs DMSO median; higher = larger share of this subpopulation than in DMSO controls
- condition-notes: 10 µM; 24 h; SM minimal medium; subpopulation (auxotrophy): Prototroph
property: z-score of prototroph abundance

Some solved cases for reference:
[
  {
    "molecule": "CC(C)NNC(=O)c1ccncc1 [Iproniazid]",
    "system-tested": "Saccharomyces cerevisiae BY4741 SeMeCo community",
    "result": -0.56
  },
  {
    "molecule": "O=C(O)Cc1ccccc1Nc1c(Cl)cccc1Cl [Diclofenac Diethylamine]",
    "system-tested": "Saccharomyces cerevisiae BY4741 SeMeCo community",
    "result": 2.27
  },
  {
    "molecule": "CCN1CCN(C(=O)N[C@@H](C(=O)N[C@@H]2C(=O)N3[C@@H]2SC(C)(C)[C@@H]3C(=O)O)c2ccccc2)C(=O)C1=O [Piperacillin Sodium]",
    "system-tested": "Saccharomyces cerevisiae BY4741 SeMeCo community",
    "result": -0.12
  },
  {
    "molecule": "O=C(O)Cc1ccccc1Nc1c(Cl)cccc1Cl [Diclofenac acid]",
    "system-tested": "Saccharomyces cerevisiae BY4741 SeMeCo community",
    "result": 1.03
  },
  {
    "molecule": "C[C@@H](O)[C@H]1C(=O)N2C(C(=O)O)=C(S[C@@H]3CN[C@H](CNS(N)(=O)=O)C3)[C@H](C)[C@H]12 [Doripenem Hydrate]",
    "system-tested": "Saccharomyces cerevisiae BY4741 SeMeCo community",
    "result": 0.39
  }
]

QUERY: Reported z-score of prototroph abundance for CN[C@@H]1[C@H](O)[C@H](NC)[C@H]2O[C@@]3(O)C(=O)C[C@@H](C)O[C@H]3O[C@@H]2[C@H]1O [Spectinomycin 2HCl] : what is it?
RESULT: -0.2

QUERY: Reported z-score of prototroph abundance for CC(=O)O[C@H]1C[C@@H]2CC[C@@H]3[C@H](CC[C@@]4(C)[C@H]3C[C@H]([N+]3(C)CCCCC3)[C@@H]4OC(C)=O)[C@@]2(C)C[C@@H]1N1CCCCC1 [Vecuronium Bromide] : what is it?
RESULT: 0.67

QUERY: Reported z-score of prototroph abundance for CN(C)CC(c1ccc(O)cc1)C1(O)CCCCC1 (stereo not drawn) [Desvenlafaxine] : what is it?
RESULT: 0.76

----------
Listed next: entries and their corresponding z-score of subpopulation abundance.
- Test system: Saccharomyces cerevisiae BY4741 SeMeCo community
- protocol-description: z-score of subpopulation abundance vs DMSO median, subpopulation auxotrophic for HLU; higher = larger share of this subpopulation than in DMSO controls
- condition-notes: 10 µM; 24 h; SM minimal medium; subpopulation (auxotrophy): HLU
Where a name gives a salt, the structure may show the parent alone.
Just the number.

Some solved cases for reference:
[
  {
    "compound": "CS(=O)(=O)c1ccc(C2=C(c3ccccc3)C(=O)OC2)cc1",
    "quantitative-readout": 1.31
  },
  {
    "compound": "OC1(c2ccc(Cl)c(C(F)(F)F)c2)CCN(CCCC(c2ccc(F)cc2)c2ccc(F)cc2)CC1",
    "quantitative-readout": 0.93
  },
  {
    "compound": "NC(=O)N1c2ccccc2CC(=O)c2ccccc21 [Oxcarbazepine]",
    "quantitative-readout": -0.11
  },
  {
    "compound": "CC(=O)[O-].[K+] [Potassium acetate]",
    "quantitative-readout": -0.71
  },
  {
    "compound": "C/C=C1\\[C@H]2C=C(C)C[C@]1(N)c1ccc(=O)[nH]c1C2 [(-)-Huperzine A (HupA)]",
    "quantitative-readout": -0.57
  }
]

QUERY: Reported z-score of subpopulation abundance for c1ccc(-c2ccc(C(c3ccccc3)n3ccnc3)cc2)cc1 (stereo unspecified) : what is it?
RESULT: 0.9

QUERY: Reported z-score of subpopulation abundance for CCCCCNC(=N)N/N=C/c1c[nH]c2ccc(OC)cc12 [Tegaserod Maleate] : what is it?
RESULT: 1.26

QUERY: Reported z-score of subpopulation abundance for NCCc1ccc(O)c(O)c1 [Dopamine HCl] : what is it?
RESULT: -0.89

QUERY: Reported z-score of subpopulation abundance for Cc1onc(-c2c(F)cccc2Cl)c1C(=O)N[C@@H]1C(=O)N2[C@@H]1SC(C)(C)[C@@H]2C(=O)O [Flucloxacillin sodium] : what is it?
RESULT: -0.04

QUERY: Reported z-score of subpopulation abundance for OCCOCCN1CCN(C2=Nc3ccccc3Sc3ccccc32)CC1 [Quetiapine Fumarate] : what is it?
RESULT: 0.76

QUERY: Reported z-score of subpopulation abundance for "C[C@]12CC[C@@H]3c4ccc(O)cc4CC[C@H]3[C@@H]1CC[C@@H]2O" : what is it?
RESULT: 0.9

----------
- Tested on: Saccharomyces cerevisiae BY4741 SeMeCo community
- protocol-description: z-score of subpopulation abundance vs DMSO median, subpopulation auxotrophic for U; higher = larger share of this subpopulation than in DMSO controls
- condition-notes: 10 µM; 24 h; SM minimal medium; subpopulation (auxotrophy): U
Where a name gives a salt, the structure may show the parent alone.
property: z-score of subpopulation abundance

Some solved cases for reference:
[
  {
    "compound": "COc1nc2ccc(Br)cc2cc1[C@@H](c1ccccc1)[C@@](O)(CCN(C)C)c1cccc2ccccc12 [Bedaquiline fumarate]",
    "result": 0.97
  },
  {
    "compound": "CCOC(=O)C1=C(COCCN)NC(C)=C(C(=O)OC)C1c1ccccc1Cl (centres undefined) [Amlodipine Besylate]",
    "result": -6.89
  },
  {
    "compound": "CCCCCCCCN=c1ccn(CCCCCCCCCCn2ccc(=NCCCCCCCC)cc2)cc1 [Octenidine Dihydrochloride]",
    "result": 2.6
  }
]

QUERY: Reported z-score of subpopulation abundance for "COc1cccc2c1C(=O)c1c(O)c3c(c(O)c1C2=O)C[C@@](O)(C(=O)CO)C[C@@H]3O[C@H]1C[C@H](N)[C@H](O[C@@H]2CCCCO2)[C@H](C)O1" : what is it?
RESULT: 5.25
